system.name: ENL YEATS domain (AviSUMO-ENL YEATS) (Homo sapiens, UniProt Q03111)
Construct: encoding ENL YEATS (aa 1−148) was cloned in pET28a-; made in house; host or cells: E. coli BL21(DE3pLysS), co-expressed with BirA (pBirAcm)
Sequence (Q03111 1-148): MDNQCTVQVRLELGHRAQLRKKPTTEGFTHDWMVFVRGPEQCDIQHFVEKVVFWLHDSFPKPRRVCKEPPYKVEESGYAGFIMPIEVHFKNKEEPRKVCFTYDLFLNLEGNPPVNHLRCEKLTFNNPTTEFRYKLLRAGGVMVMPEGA
experiment.summary: Phage panning of BuK-containing 7-mer library against AviSUMO-ENL YEATS with Illumina NGS abundance
reported.conditions: sheet ENLR3: round 3 of selection against ENL YEATS; TAG = amber codon (BuK)
reported.metric: n (number of NGS reads of the 7-mer sequence V1-V7)

- YDGPWTAGG: 1
- QCGPRWD: 1
- WWINETAGG: 1
- QCAPRTAGD: 1
- TAGVFALVI: 1
- WWITETAGG: 1
- QWGPRTAGD: 1
- QCDPRTAGD: 1
- QCSPRTAGD: 1
- SGVGFTAGS: 1
- QCGPRQD: 1
- YLYTAGAPC: 1
- TAGNVCGTV: 1
- SLERTAGGF: 1
- YWTAGCARV: 1
- NYVLFTAGG: 1
- QCGPPTAGD: 1
- WWIIELG: 1
- RCGPRTAGD: 1
- YGTAGHDFF: 1
- YPCVCFTAG: 1
